# System: JCK
# experiment: qHTS profiling for inhibitors of Plasmodium falciparum proliferation (AID 504749); further: nearly all actives have a fitted effect of over 60% in size
# experimental parameters: P. falciparum in erythrocytes, SYBR Green DNA, 72 h; series mostly up to 28.7 µM
Inconclusive results are not listed. The source made the active and inactive calls. The call rests on the fitted dose curve; in most records, active means well fitted inhibition curve with a large enough effect; inconclusive means small, poorly fitted or top-dose-only effect; inactive means flat fitted curve, though single readings scatter.
The categories you may choose from are Yes for active, No for inactive

For orientation, consider the following solved cases.
C=C1N[C@]2(C(=O)COC(C)=O)[C@@H](C[C@H]3[C@@H]4CCC5=CC(=O)C=C[C@]5(C)[C@H]4[C@@H](O)C[C@@]32C)O1 | No
CC(=O)OCC(=O)[C@@]1(O)CCC2C3C[C@H](C)C4=CC(=O)C=CC4(C)C3C(O)CC21C (stereo not given in full) | No
COc1ccc(S(=O)(=O)N2c3ccc(Cl)cc3[C@](O)(c3ccccc3Cl)[C@@H]2C(=O)N2CCC[C@H]2C(N)=O)cc1OC | No
CO/N=C(/C(=O)N[C@@H]1C(=O)N2C(C(=O)O)=C(CSc3nc(C)c(CC(=O)O)s3)CS[C@H]12)c1csc(N)n1 | No
CC(C)C(=O)OCC(=O)[C@@]12OC(C3CCCCC3)O[C@@H]1CC1C3CCC4=CC(=O)C=C[C@]4(C)C3[C@@H](O)C[C@@]12C (stereo not given in full) | Yes
CC(O)C(N)C(=O)O (stereo not given) | No
CC1(C)SC2C(NC(=O)C(C(=O)O)c3ccccc3)C(=O)N2C1C(=O)O (stereo not given) | No
Nc1nc2[nH]cc(CCc3ccc(C(=O)NC(CCC(=O)O)C(=O)O)cc3)c2c(=O)[nH]1 (stereo not given) | Yes

We next turn to a different compound, shown below.
Request: Could you kindly confirm the outcome this assay logged for C=C(CC[C@@H](C)[C@H]1CCC2[C@]1(C)CC[C@]13C[C@@]14CCC(OC(=O)/C=C/c1ccc(O)c(OC)c1)C(C)(C)[C@@H]4CC[C@@]23C)C(C)C (stereo not given in full) ?
Response: No

====

# Test system: CP237
# experiment: qHTS profiling for inhibitors of Plasmodium falciparum proliferation (AID 504749); further: nearly all actives have a fitted effect of over 60% in size
# experimental parameters: P. falciparum in erythrocytes, SYBR Green DNA, 72 h; series mostly up to 28.7 µM
Records with an inconclusive call do not appear. Calls of active or inactive are those of the source. The call rests on the fitted dose curve; in most records, active means well fitted inhibition curve with a large enough effect; inconclusive means small, poorly fitted or top-dose-only effect; inactive means flat fitted curve, though single readings scatter.
The categories you may choose from are active, inactive

For orientation, consider the following solved cases.
CC[C@@]1(O)C[C@H](O[C@H]2C[C@@H](N(C)C)[C@@H](O[C@H]3C[C@@H](O)[C@@H](O[C@H]4CCC(=O)[C@@H](C)O4)[C@@H](C)O3)[C@@H](C)O2)c2c(cc3c(c2O)C(=O)c2c(O)cccc2C3=O)[C@H]1C(=O)OC | active
CC1CN(c2c(F)c(N)c3c(=O)c(C(=O)O)cn(C4CC4)c3c2F)CC(C)N1 (stereo not drawn) | inactive

We next turn to a different molecule, shown below.
Request: Could you kindly confirm the outcome this assay logged for C#C[C@]1(O)CC[C@H]2[C@H]3[C@H](CC[C@@]21C)C1=C(CC(=O)CC1)C[C@@H]3C ?
Response: inactive

====

# experiment: Stat Signaling Pathway (AID 446);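 further: ME-180 cervical cancer cells given 40 pM IL-6 alongside compound; SIE-controlled beta-lactamase reporter measured as 460/530 nm FRET emission ratio; on the % scale 0 is the no-effect control and ±100 the full control effect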
# experimental parameters: ME-180 SIE beta-lactamase reporter, IL-6 stimulated, 5 h; at 17.2 µM (top of the series) unless noted
Inconclusive results are not listed. Active and inactive are the calls of the source. The call rests on the fitted dose curve; in most records, active means well fitted curve in either direction with a large enough effect (not every such curve was filed as active); inconclusive means small, poorly fitted or top-dose-only effect, or another doubt; inactive means flat fitted curve, though single readings scatter.
The categories you may choose from are active, inactive

For orientation, consider the following solved cases.
Cc1ccc(S(=O)(=O)N2CCN(c3nc(C)c4c(c3C#N)CC(C)(C)OC4)CC2)cc1 | active
Cn1c(=O)c2c(nc(/C=C\c3cccc(Cl)c3)n2C)n(C)c1=O | inactive
COC(=O)C(NC(C)=O)(Nc1nc2c(s1)CCCC2)C(F)(F)F (stereo not given) | inactive
CN1CCN(c2c3c(c(C#N)c4nc5ccccc5n24)CCCC3)CC1 | inactive
CC1(C)Cc2nc(NCCCO)c(C#N)cc2CO1 | inactive
COc1ccc2[nH]c(C)c(C(=O)CN3CCN(C(=O)c4ccco4)CC3)c2c1 | inactive
C[N+](C)(C)[C@@H](C1=CCCC1=O)c1ccccc1 | inactive
CCCCOC(=O)Nc1ccc(S(=O)(=O)Nc2nc(C)cc(C)n2)cc1 | inactive

Request: Could you kindly confirm the outcome this assay logged for COc1ccc(OC)c(C2=Nn3c(nnc3-c3ccco3)SC2)c1 ?
Response: inactive

Request: Same read-out for Cn1c(=O)c2c(nc(N3CCC(C(N)=O)CC3)n2CCSc2nc3ccccc3s2)n(C)c1=O ?
Response: inactive

Request: Same read-out for COc1ccc(N2CCN(C3CC(=O)NC3=O)CC2)cc1 (stereo not given) ?
Response: inactive

Request: Same read-out for CCC(CC)n1[nH]c(=O)cc1N ?
Response: inactive

Request: Same read-out for O=C(NC1CCCCC1)Nn1c(-c2ccccc2)nc2ccccc2c1=O ?
Response: inactive

Request: Same read-out for CCc1nc(NCC2CCCO2)c(C#N)c2c1COC(C)(C)C2 (stereo not given) ?
Response: inactive

Request: Same read-out for Cc1ccc(-n2c(SCC(=O)NCc3ccco3)nc3nc4c(cc3c2=O)COC(C)(C)C4)cc1 ?
Response: inactive

Request: Same read-out for CCN(CC)CCCN1C(=O)C(=O)/C(=C(/O)c2ccc3c(c2)CC(C)O3)C1c1cccnc1 (stereo not given) ?
Response: inactive

Request: Same read-out for CCC1(C)Cc2c(C#N)c(N)sc(=S)c2CO1 (stereo not given) ?
Response: inactive

Request: Same read-out for CCN(CC)c1ncc(C)c(=O)[nH]1 ?
Response: inactive

Request: Same read-out for O=C(NCc1ccco1)c1ccc(=O)[nH]n1 ?
Response: inactive

Request: Same read-out for Cc1ccc(-n2ncc3c(NCc4cccnc4)ncnc32)c(C)c1 ?
Response: inactive

====

# experiment: S16 Schwann cell PMP22 intronic element beta-lactamase assay (AID 624044); further: nearly all actives have a fitted effect of over 15% in size
# experimental parameters: S16 rat Schwann cells, PMP22 element beta-lactamase FRET, 24 h
Results filed as inconclusive are left out. The source made the active and inactive calls. Calls come from the whole dose curve.
The categories you may choose from are active, inactive

CCC(C(=O)C(C)C(O)C(C)CCc1ccc(C)c(O)c1C(=O)O)C1OC(CC)(C2CC[C@@](O)(CC)C(C)O2)CC1C (stereo partly specified) | active

Request: Could you kindly confirm the outcome this assay logged for CC1(C)OC[C@@H]2O[C@@]3(C(=O)O)OC(C)(C)O[C@@H]3[C@@H]2O1 ?
Response: inactive

Request: Same read-out for CC1(C)SC2C(NC(=O)C(C(=O)O)c3ccccc3)C(=O)N2C1C(=O)O (stereo unspecified) ?
Response: inactive

Request: Same read-out for Cc1cnc(C(=O)O)cn1 ?
Response: inactive

Request: Same read-out for O=C(NC(CO)C(O)c1ccc([N+](=O)[O-])cc1)C(Cl)Cl (stereo unspecified) ?
Response: inactive

Request: Same read-out for Cn1cc(C(=O)[C@@H]2CCc3[nH]cnc3C2)c2ccccc21 ?
Response: inactive

====

# experiment: Cell Viability - LYMP2-012 (AID 982);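 further: cellular ATP by luciferase luminescence where a drop means cytotoxicity; cells exposed to compound for one day before reading; 0% = DMSO only and full loss = 92 µM tetraoctylammonium bromide; nearly all actives have a fitted effect of over 55% in size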
# experimental parameters: LYMP2-012 lymphoblastoid cell viability qHTS; series mostly up to 92.2 µM
Records with an inconclusive call do not appear. Active and inactive are the calls of the source. Calls come from the whole dose curve; as a rule, active = well fitted cell-killing curve with a large enough effect; inconclusive = small, poorly fitted or top-dose-only effect; inactive = flat fitted curve, though single readings scatter.
measure: outcome

O=C=Nc1ccc(Cc2ccc(N=C=O)cc2)cc1 | inactive
O=Cc1ccc(Cl)c(Cl)c1 | inactive
O=[N+]([O-])c1cc([N+](=O)[O-])c2ccc(S(=O)(=O)O)cc2c1O | inactive

====

# experiment: Stat Signaling Pathway (AID 446);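 further: ME-180 cervical cancer cells given 40 pM IL-6 alongside compound; SIE-controlled beta-lactamase reporter measured as 460/530 nm FRET emission ratio; on the % scale 0 is the no-effect control and ±100 the full control effect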
# experimental parameters: ME-180 (cervical carcinoma) SIE beta-lactamase reporter, IL-6 stimulated, 5 h; at 17.2 µM (top of the series) unless noted
Inconclusive results are not listed.
measure: activity, negative = inhibition (%)
Numbers only here, please. The scale is %.

Here are 3 compounds together with their reported answers.
COc1ccc(Cl)cc1N=Cc1c(O)cc(C)oc1=O | 5.26
CCOC(=O)c1cc2cc(OC)ccc2[nH]1 | -4.94
CCOC(=O)CSc1nc(N)c2c3c(sc2n1)CCCC3 | -14.2

Request: Quick check: activity, negative = inhibition of C/C=C/c1ccccc1OCc1ccc(C(=O)O)o1 ?
Response: -2.17

Request: Same read-out for Cc1ccc(N(CN2C(=O)NC(C)(C)C2=O)CN2C(=O)NC(C)(C)C2=O)cc1 ?
Response: 5.53

Request: Same read-out for CCN(CC)CCOC(=O)C1(c2ccc(OC)c(OC)c2)CCCC1 ?
Response: 11

====

# experiment: NFAT Signaling Pathway (AID 444);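 further: carbachol stimulus at about its EC50 of 1 µM final; on the % scale 0 is the no-effect control and ±100 the full control effect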
# experimental parameters: Jurkat NFAT-bla M1, carbachol, beta-lactamase ratio, 5 h; at 17.2 µM (top of the series) unless noted
Inconclusive results are not listed. Calls of active or inactive are those of the source. Calls come from the whole dose curve; as a rule, active = well fitted curve in either direction with a large enough effect (not every such curve was filed as active); inconclusive = small, poorly fitted or top-dose-only effect, or another doubt; inactive = flat fitted curve, though single readings scatter.
The categories you may choose from are YES = active, NO = inactive

For orientation, consider the following solved cases.
COc1ccc(N(CN2C(=O)C3C4C=CC(C4)C3C2=O)C(=O)c2ccco2)cc1 (stereo unspecified) | NO
CC(C)c1nc(N2CCOCC2)c(C#N)c2c1CCC2 | NO
O=C(c1ccc(=O)oc1)N1CCN(C(c2ccccc2)c2ccccc2)CC1 | YES
COc1ccc(-c2nc3n(c2Br)CCC3)cc1 | NO

We next turn to a different molecule, shown below.
Request: Could you kindly confirm the outcome this assay logged for Cc1ccc(OCC(=O)NCC(=O)n2nc(C)cc2C)cc1 ?
Response: NO
